B1: PLD5 (parent)
chain: KRTYWPDLDAKIREALVLRSVRVR

- Variants of: B1
- Protocol Text: protein stability index of a GFP-peptide fusion (GPS, HEK-293T) (PSI 1-6); higher = more stable;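 note: lentivirally expressed fusions sorted by FACS into six bins by GFP to DsRed ratio, PSI derived from sequencing read proportions per bin multiplied by bin number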
- Run Conditions: c terminus: a fixed tail appended
Given measured protein stability index, output 1 if it is greater than or equal to 2 and -1 if not.

- Change: "R24E"
  Class Label: -1
- Change: "A15Y"
  Class Label: 1
- Change: "Y4L"
  Class Label: 1
- Change: "E14Q"
  Class Label: -1
- Change: "K1D"
  Class Label: 1
- Change: "A10V"
  Class Label: -1
- Change: "D7F"
  Class Label: -1
- Change: "R22C"
  Class Label: 1

Could you please find out whether R22L has protein stability index that meets 2 or exceeds it? -1

Cool, now R19N 1

Cool, now V23H 1
